This collection of values is drawn from paper PMC11932207.

# assay-target: GluA2 (Rattus norvegicus, UniProt P19491)
# Construct: expressed in transfected cells; host or cells: HEK293T (HEK293) cells, transient co-transfection with a separate EGFP vector
# Sequence (P19491 22-883 isoform P19491-2 limits assumed): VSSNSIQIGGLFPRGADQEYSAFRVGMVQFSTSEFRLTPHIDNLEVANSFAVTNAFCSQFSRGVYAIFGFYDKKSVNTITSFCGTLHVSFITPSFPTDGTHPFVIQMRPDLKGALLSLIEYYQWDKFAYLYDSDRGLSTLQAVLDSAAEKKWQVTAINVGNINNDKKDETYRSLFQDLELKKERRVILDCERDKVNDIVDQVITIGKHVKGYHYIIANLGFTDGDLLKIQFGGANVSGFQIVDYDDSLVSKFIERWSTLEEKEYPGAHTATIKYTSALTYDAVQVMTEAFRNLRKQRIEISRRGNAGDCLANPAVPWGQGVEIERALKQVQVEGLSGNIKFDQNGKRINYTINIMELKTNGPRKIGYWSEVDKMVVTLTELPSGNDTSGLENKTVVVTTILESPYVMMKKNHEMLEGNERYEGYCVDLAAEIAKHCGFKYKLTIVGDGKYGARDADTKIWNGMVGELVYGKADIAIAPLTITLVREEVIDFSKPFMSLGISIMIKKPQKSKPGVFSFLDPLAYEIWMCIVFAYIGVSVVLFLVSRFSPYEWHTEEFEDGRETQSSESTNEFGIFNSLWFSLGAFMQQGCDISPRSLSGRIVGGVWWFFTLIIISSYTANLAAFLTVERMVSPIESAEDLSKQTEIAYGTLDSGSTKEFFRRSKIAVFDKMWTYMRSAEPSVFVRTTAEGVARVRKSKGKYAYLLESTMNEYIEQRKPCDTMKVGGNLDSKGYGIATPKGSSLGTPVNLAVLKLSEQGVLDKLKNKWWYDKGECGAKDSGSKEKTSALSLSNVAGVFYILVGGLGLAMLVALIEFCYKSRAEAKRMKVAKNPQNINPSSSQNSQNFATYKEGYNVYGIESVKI
# assay-summary: Whole-cell patch clamp recordings of homomeric GluA2 AMPA receptor currents and kinetics in transfected HEK293t cells
# Format: cell-based
# experimental-parameters: 10 mM glutamate for 1 ms, with compound, mean ± SD
// t deact (weighted deactivation time constant) lookup, one value per entry
Supply the numeric figure in ms, leaving out any unit text.

compound | unit-spec | assay-result
COc1ccccc1Oc1ccc(NC(=O)c2c(-c3c(Cl)cccc3Cl)noc2C)cc1 [CIC-7] | ms | 5.1
COc1cc(NC(=O)c2c(-c3c(Cl)cccc3Cl)noc2C)cc(OC)c1OC [CIC-4] | ms | 5.6

Shifting focus to the compound that follows.
Give its t deact (weighted deactivation time constant) value. Item: COc1ccc(NC(=O)c2c(-c3c(Cl)cccc3Cl)noc2C)cc1OC [CIC-6]
5.4
